test system: 252836-082-R-J2-PDC tumor spheroids, viability; assay: Anticancer human tumor 252836-082-R-J2-PDC patient-derived head and neck squamous cell carcinoma cell line growth inhibition [PI3K]; details: second compound 0.1 µM; first compound 0.001 µM; stronger effect = lower value; spheroids with HUVEC and MSC;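 note: spheroids exposed to agents for seven days before readout; percent of vehicle DMSO control viability so 100% = untreated growth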
measure: viability, T/C (%)
// return numeric value only (unit: %, not printed)

The following molecules have reported results that may help.
[[record]]
molecule = "Cn1ncnc1[C@H]1c2n[nH]c(=O)c3cc(F)cc(c23)N[C@@H]1c1ccc(F)cc1 + COc1c(OCCCN2CCOCC2)ccc2c3n(c(=NC(=O)c4cnc(N)nc4)nc12)CCN3"
experimental_value = 35.1

[[record]]
molecule = "CC(C)n1nc(-c2ccc3oc(N)nc3c2)c2c(N)ncnc21 + Cc1nc(NC(=O)N2CCCC2C(N)=O)sc1-c1ccnc(C(C)(C)C(F)(F)F)c1"
experimental_value = 83.1


Would you kindly look at the next entry?
Request: Fill in reported viability, T/C for this entry: CC(=O)c1c(C)c2cnc(Nc3ccc(N4CCNCC4)cn3)nc2n(C2CCCC2)c1=O + COc1c(OCCCN2CCOCC2)ccc2c3n(c(=NC(=O)c4cnc(N)nc4)nc12)CCN3
Result: 41.2
